# EXPERIMENT_DESCRIPTION: In vivo pharmacokinetics in SD rats
# CONDITION_INFO: Sprague-Dawley, rat, in vivo, po; Gavage - 10 mg/kg; read-out: t1/2 (converted)
ASSAY_READOUT: half-life

Complete the entry with half-life for CNC(=O)c1ccc2c(cc1=O)[C@@H](NC(C)=O)CCc1cc3c(c(OC)c1-2)OCO3
3.33 h

----------
# System: TNF-α
# EXPERIMENT_DESCRIPTION: Inflammatory factor experiment A: TNF-α in gouty arthritis rats
# Assay type: in vivo, SD rats
# CONDITION_INFO: synovial tissue of knee joints; dose 0.6 mg/kg gavage; day 10
ASSAY_READOUT: Decreased TNF-α percentage % (%)
Report the value in % with no unit label.

Complete the entry with Decreased TNF-α percentage % for COc1cc2c(c(OC)c1OC)-c1cc(C)c(=O)c(OC)cc1[C@@H](NC(C)=O)CC2
107.16

Complete the entry with Decreased TNF-α percentage % for COc1cc2c(c(OC)c1OC)-c1ccc(OC3CCOC3)c(=O)cc1[C@@H](NC(C)=O)CC2 (stereo partly shown)
160.36

Complete the entry with Decreased TNF-α percentage % for COc1cc2c(c(OC)c1OC)-c1ccc(OC)c(=O)cc1[C@@H](NC(C)=O)CC2 [colchicine, reference compound]
93.73

Complete the entry with Decreased TNF-α percentage % for COc1cc2c(c(OC)c1OC)-c1cc(Br)c(OC)c(=O)cc1[C@@H](NC(C)=O)CC2
125.78

----------
# Test system: gouty arthritis rats (sodium urate, right ankle and knee joint cavities)
# EXPERIMENT_DESCRIPTION: Pharmacodynamics experiment B on gouty arthritis rats: ankle swelling rate
# Format: in vivo, SD rats
# CONDITION_INFO: Rattus norvegicus, po, 4 h, read-out: Swelling rate (ankle)
Class Yes: change in vivo at 0.6 mg/kg at least 10%. Class No: change in vivo at 0.6 mg/kg below 10%.

change in vivo at 0.6 mg/kg >= 10% for CNC(=O)c1ccc2c(cc1=O)[C@@H](NC(=O)C1CC1)CCc1cc(OC)c(OC)c(OC)c1-2 ?
Yes

change in vivo at 0.6 mg/kg >= 10% for COc1cc2c(c(OC)c1OC)-c1ccc(=O)c(O[C@H]3CCOC3)cc1[C@@H](NC(C)=O)CC2 ?
Yes

change in vivo at 0.6 mg/kg >= 10% for COc1cc2c(c(OC)c1OC)-c1ccc(OCC(F)(F)F)c(=O)cc1[C@@H](NC(C)=O)CC2 ?
No

change in vivo at 0.6 mg/kg >= 10% for CNC(=O)N[C@H]1CCc2cc(OC)c(OC)c(OC)c2-c2cc(C)c(OC)c(=O)cc21 ?
No

change in vivo at 0.6 mg/kg >= 10% for CNC(=O)c1cc2c(ccc1=O)-c1c(cc(OC)c(OC)c1OC)CC[C@@H]2NC(C)=O ?
No

change in vivo at 0.6 mg/kg >= 10% for COc1cc2c(c(OC)c1OC)-c1ccc(C#N)c(=O)cc1[C@@H](NC(C)=O)CC2 ?
Yes

change in vivo at 0.6 mg/kg >= 10% for COc1cc2c(c(OC)c1OC)-c1ccc(-c3cnn(C)c3)c(=O)cc1[C@@H](NC(C)=O)CC2 ?
Yes

change in vivo at 0.6 mg/kg >= 10% for COc1cc2c(c(OC)c1OC)-c1cc(I)c(OC)c(=O)cc1[C@@H](NC(C)=O)CC2 ?
Yes

change in vivo at 0.6 mg/kg >= 10% for CNC(=O)c1ccc2c(cc1=O)[C@@H](NC(C)=O)CCc1cc(OC)c(O)c(OC)c1-2 ?
Yes

change in vivo at 0.6 mg/kg >= 10% for COc1cc2c(c(OC)c1OC)-c1ccc(OC)c(=O)cc1[C@@H](NC(C)=O)CC2 [colchicine, reference compound] ?
Yes

change in vivo at 0.6 mg/kg >= 10% for COc1cc2c(c(OC)c1OC)-c1ccc(S(N)(=O)=O)c(=O)cc1[C@@H](NC(C)=O)CC2 ?
No

change in vivo at 0.6 mg/kg >= 10% for COc1cc2c(c(OC)c1OC)-c1ccc(-n3ccc(C)n3)c(=O)cc1[C@@H](NC(C)=O)CC2 ?
Yes

change in vivo at 0.6 mg/kg >= 10% for COC(=O)c1cc2c(cc(=O)c1OC)[C@@H](NC(C)=O)CCc1cc(OC)c(OC)c(OC)c1-2 ?
No

change in vivo at 0.6 mg/kg >= 10% for COc1cc2c(c(OC)c1OC)-c1cc(C)c(OC)c(=O)cc1[C@@H](NC(C)=O)CC2 ?
Yes

change in vivo at 0.6 mg/kg >= 10% for COc1cc2c(c(OC)c1OC)-c1cc(C)c(O[C@H]3CCOC3)c(=O)cc1[C@@H](NC(C)=O)CC2 ?
No

change in vivo at 0.6 mg/kg >= 10% for COc1cc2c(c(OC)c1OC)-c1ccc(C(=O)N3CCOCC3)c(=O)cc1[C@@H](NC(C)=O)CC2 ?
Yes
